system.tested: Opioid receptors; mu & kappa (Homo sapiens) (UniProt P41145+P35372)
Sequence (P35372 whole entry, looked up): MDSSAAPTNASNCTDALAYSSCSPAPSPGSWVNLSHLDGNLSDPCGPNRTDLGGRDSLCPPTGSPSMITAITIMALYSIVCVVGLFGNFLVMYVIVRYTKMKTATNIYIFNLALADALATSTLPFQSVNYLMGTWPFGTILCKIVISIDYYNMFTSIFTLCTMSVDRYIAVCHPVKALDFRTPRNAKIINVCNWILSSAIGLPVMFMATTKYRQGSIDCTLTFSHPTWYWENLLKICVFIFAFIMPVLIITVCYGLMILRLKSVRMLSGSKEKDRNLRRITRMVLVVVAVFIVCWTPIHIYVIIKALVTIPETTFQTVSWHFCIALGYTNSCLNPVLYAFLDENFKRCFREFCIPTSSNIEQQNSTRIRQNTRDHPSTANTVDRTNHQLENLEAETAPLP
Sequence (P41145 whole entry, looked up): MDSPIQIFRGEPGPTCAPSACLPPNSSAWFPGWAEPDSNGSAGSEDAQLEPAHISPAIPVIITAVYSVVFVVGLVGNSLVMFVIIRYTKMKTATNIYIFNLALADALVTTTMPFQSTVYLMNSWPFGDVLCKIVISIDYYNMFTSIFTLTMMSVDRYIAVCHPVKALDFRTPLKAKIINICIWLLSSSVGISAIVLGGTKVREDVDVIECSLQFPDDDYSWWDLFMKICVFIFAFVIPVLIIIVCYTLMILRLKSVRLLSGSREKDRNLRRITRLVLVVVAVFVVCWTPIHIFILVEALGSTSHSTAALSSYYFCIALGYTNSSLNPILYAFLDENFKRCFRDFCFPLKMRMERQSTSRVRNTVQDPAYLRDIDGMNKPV
protocol.text: Selectivity for kappa opioid receptor over mu opioid receptor
Type: protein assay
Listed below: Ratio values for each entry.
No unit in the answer, please; the number alone is enough.

Worked examples, 2 compounds total:
CN(C(=O)CNc1ccccc1C#N)[C@H](CN1CC[C@H](O)C1)c1ccccc1 :: 667
CN(CC(=O)N(C)[C@H](CN1CC[C@H](O)C1)c1ccccc1)c1ccc(C#N)cc1 :: 250

compound CN(C(=O)CNc1cccc(C#N)c1)[C@H](CN1CC[C@H](O)C1)c1ccccc1 , Ratio observed: 1140

---

Here, each record is paired with measured Ratio data.
system.tested: Opioid receptors; delta & kappa (Homo sapiens) (UniProt P41145+P41143)
Sequence (P41143 whole entry, looked up, one chain of several): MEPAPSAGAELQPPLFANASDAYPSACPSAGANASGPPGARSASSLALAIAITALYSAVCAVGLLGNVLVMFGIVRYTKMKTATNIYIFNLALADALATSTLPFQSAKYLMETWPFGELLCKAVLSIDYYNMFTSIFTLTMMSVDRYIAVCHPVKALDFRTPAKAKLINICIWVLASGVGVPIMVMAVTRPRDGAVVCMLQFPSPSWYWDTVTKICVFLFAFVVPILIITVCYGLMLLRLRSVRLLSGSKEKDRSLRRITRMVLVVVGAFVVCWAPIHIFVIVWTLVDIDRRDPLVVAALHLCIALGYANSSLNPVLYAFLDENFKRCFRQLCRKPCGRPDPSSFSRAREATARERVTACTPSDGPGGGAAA
protocol.text: Selectivity for kappa opioid receptor over delta opioid receptor
Assay type: protein assay
Just the number, please, no unit attached.

CC(=O)N(CC(=O)N(C)[C@H](CN1CC[C@H](O)C1)c1ccccc1)c1ccccc1 :: 342
CN(C(=O)CNc1ccc(C#N)cc1)[C@H](CN1CC[C@H](O)C1)c1ccccc1 :: 409
CN(C(=O)CNc1ccc([N+](=O)[O-])cc1)[C@H](CN1CC[C@H](O)C1)c1ccccc1 :: 119
CN(C(=O)CNc1cccc(CNS(C)(=O)=O)c1)[C@H](CN1CC[C@H](O)C1)c1ccccc1 :: 38
CN(CC(=O)N(C)[C@H](CN1CC[C@H](O)C1)c1ccccc1)c1ccc(C#N)cc1 :: 180
CCCS(=O)(=O)Nc1ccc(NCC(=O)N(C)[C@H](CN2CC[C@H](O)C2)c2ccccc2)cc1 :: 87

Now consider the entry below.
# Ratio (compound: CN(CC(=O)N(C)[C@H](CN1CC[C@H](O)C1)c1ccccc1)c1ccccc1 ) is 169

---

system.tested: Cytochrome P450 2D6 (Homo sapiens, UniProt P10635)
Sequence (P10635 whole entry): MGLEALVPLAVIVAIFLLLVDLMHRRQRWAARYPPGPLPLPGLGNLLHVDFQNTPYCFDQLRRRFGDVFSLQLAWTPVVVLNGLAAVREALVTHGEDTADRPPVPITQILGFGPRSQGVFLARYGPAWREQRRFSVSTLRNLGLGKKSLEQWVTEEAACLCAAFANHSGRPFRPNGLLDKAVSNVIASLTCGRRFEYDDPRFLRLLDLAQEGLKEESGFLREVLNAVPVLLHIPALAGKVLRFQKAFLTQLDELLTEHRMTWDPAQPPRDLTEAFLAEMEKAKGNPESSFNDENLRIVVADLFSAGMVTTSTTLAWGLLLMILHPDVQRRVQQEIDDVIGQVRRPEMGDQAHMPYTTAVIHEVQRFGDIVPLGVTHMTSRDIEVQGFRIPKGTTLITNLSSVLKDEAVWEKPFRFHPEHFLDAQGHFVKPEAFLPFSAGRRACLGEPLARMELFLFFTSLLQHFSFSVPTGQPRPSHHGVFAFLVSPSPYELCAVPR
recorded.metric: pIC50
The value called pIC50 is obtained by taking minus log10 of the concentration in mol/L.

CN(C(=O)CNc1cccc(CNS(C)(=O)=O)c1)[C@H](CN1CC[C@H](O)C1)c1ccccc1 :: 5.06

Record CC(=O)N(CC(=O)N(C)[C@H](CN1CC[C@H](O)C1)c1ccccc1)c1ccccc1 . Reported pIC50: 6.52

Entry CN(CC(=O)N(C)[C@H](CN1CC[C@H](O)C1)c1ccccc1)c1ccccc1 , pIC50 reported as 6.28

Reported pIC50 of CN(C(=O)CNc1ccc(CNS(C)(=O)=O)cc1)[C@H](CN1CC[C@H](O)C1)c1ccccc1 : 5.10

Briefly, pIC50 measured for CN(C(=O)CNc1cccc(C#N)c1)[C@H](CN1CC[C@H](O)C1)c1ccccc1 : 5.52

What the record says about CN(C(=O)CNc1ccc(Cl)c(Cl)c1)[C@H](CN1CC[C@H](O)C1)c1ccccc1 : pIC50 is 6.12

Lab book: pIC50 of CN(C(=O)CNc1ccccc1CNS(C)(=O)=O)[C@H](CN1CC[C@H](O)C1)c1ccccc1 noted as 5.82
